target: type-1 15-PGDH (Homo sapiens, UniProt P15428); construct: made in house; assay: Test on type-1 15-PGDH (spectrophotometric, 340 nm, maximum reaction rate); type: biochemical; conditions: compound at 100 μM; 37° C., pH 7.4, PGE2 50 μM, β-NAD 1.5 mM
Sequence (P15428 whole entry): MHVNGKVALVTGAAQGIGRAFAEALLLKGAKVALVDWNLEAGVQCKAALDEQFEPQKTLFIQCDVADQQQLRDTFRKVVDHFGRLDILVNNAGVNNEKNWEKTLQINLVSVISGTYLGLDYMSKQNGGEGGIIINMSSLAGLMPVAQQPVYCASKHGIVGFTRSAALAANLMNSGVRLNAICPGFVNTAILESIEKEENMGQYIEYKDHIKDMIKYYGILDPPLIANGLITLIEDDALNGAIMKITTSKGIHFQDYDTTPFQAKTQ
Decide using inhibition at 100 µM: a value greater than or equal to 60% is 1, a smaller one is 0.

Example entries and their recorded answers appear below.
{"MOLECULE": "O=C(COc1cccc2cccnc12)Nc1cccc([N+](=O)[O-])c1", "CLASS": 1}
{"MOLECULE": "O=C(COCc1ccccc1)NC1CCCC1 [Compound 16, 2-Benzyloxy-N-cyclopentylacetamide]", "CLASS": 1}
{"MOLECULE": "COc1cc(C(C)=O)ccc1OCC(=O)Nc1ccccc1C(F)(F)F", "CLASS": 1}
{"MOLECULE": "CSCCNC(=O)COc1ccccc1", "CLASS": 1}
{"MOLECULE": "Cc1nc2cc(OCC(=O)Nc3ccc(OC(F)(F)F)cc3)ccc2s1", "CLASS": 0}
{"MOLECULE": "C[Si](C)(C)CNC(=O)COCc1ccccc1", "CLASS": 1}
{"MOLECULE": "Cc1ccc(CNC(=O)COCc2ccccc2)o1", "CLASS": 0}
{"MOLECULE": "O=C(COc1ccc(-n2cccc2)cc1)Nc1ccccc1C(F)(F)F", "CLASS": 1}

INPUT: Hi team, for O=C(COCc1ccccc1)NC[C@@H]1CCCO1 (stereo in doubt) , is the recorded inhibition at 100 µM at or above 60%?
OUTPUT: 0

INPUT: Also need O=C(COCc1ccccc1)NCc1ccccc1 , thanks.
OUTPUT: 0

INPUT: Also need O=C(COc1ccccc1)NC[C@@H]1CCCO1 , thanks.
OUTPUT: 0

INPUT: Also need CCCCCCNC(=O)COc1ccccc1 , thanks.
OUTPUT: 0

INPUT: Also need O=C(COc1ccc(-n2ccnc2)cc1)Nc1ccccc1Cl , thanks.
OUTPUT: 0

INPUT: Also need O=C(COc1ccc(-c2ccccc2)cc1)Nc1ccccc1C(F)(F)F , thanks.
OUTPUT: 1

INPUT: Also need O=C(COc1cccc2cccnc12)Nc1ccccc1C(F)(F)F , thanks.
OUTPUT: 1

INPUT: Also need O=C(COc1ccc(-n2ccnc2)cc1)Nc1ccccc1C(F)(F)F , thanks.
OUTPUT: 1

INPUT: Also need Cc1cccc(C)c1NC(=O)COc1cccc2cccnc12 , thanks.
OUTPUT: 0

INPUT: Also need O=C(COc1cccc2cccnc12)Nc1ccccc1Cl , thanks.
OUTPUT: 1

INPUT: Also need CCOC(=O)c1ccc(NC(=O)COc2ccc(C(C)=O)cc2)cc1 , thanks.
OUTPUT: 0

INPUT: Also need N#Cc1ccc(-c2ccc(OCC(=O)Nc3cccc([N+](=O)[O-])c3)cc2)cc1 , thanks.
OUTPUT: 0

INPUT: Also need C[Si](C)(C)CNC(=O)COc1ccccc1 , thanks.
OUTPUT: 1

INPUT: Also need CC(C)(C)c1ccc(OCC(=O)NC[Si](C)(C)C)cc1 , thanks.
OUTPUT: 0

INPUT: Also need O=C(COc1ccc2oc3ccccc3c2c1)Nc1ccc(OC(F)(F)F)cc1 , thanks.
OUTPUT: 1

INPUT: Also need O=C(COc1ccc2c(c1)C(=O)c1ccccc1-2)Nc1ccc(C(F)(F)F)cc1 , thanks.
OUTPUT: 1

INPUT: Also need CCCCCCc1ccc(NC(=O)COc2ccc3sc(C)nc3c2)cc1 , thanks.
OUTPUT: 1
